Target: human ether-à-go-go-related gene (hERG) potassium channel (human)
Test: primary screen, population patch clamp on CHO cells stably expressing hERG; higher = less effect of the substance
Hit rate of the full screen: of about 310,000 compounds, about 14,000 (4.5%) showed an effect of 50% or more. Effects have a minus sign here. Many of the other results were omitted from the sample, so strong results are more common in it than they were.
Listed here are compounds together with their documented hERG current change (%, negative = inhibition) at 10uM.

Recorded results for 5 compounds are shown here.
1) Cc1[nH]c(C)c(S(=O)(=O)Nc2ccc(OC(F)(F)F)cc2)c1C(=O)N1CCCCC1    -7.79%
2) COc1ccc(NC(=O)C2CCCO2)cc1 (stereo not shown)    -0.956%
3) Cc1noc(C)c1COC(=O)CCN1c2ccccc2Sc2ccccc21    7.54%
4) CC1CCN(CC(=O)Nc2ccccc2C(=O)NC2CC2)CC1    -17.4%
5) Cc1ccc(S(C)(=O)=O)cc1C(=O)Nc1cccc(S(=O)(=O)N2CCCCCC2)c1    -65.2%

Form: Entry = "CCn1cc(S(=O)(=O)Nc2cc(C)ccc2F)cn1" | System = human ether-à-go-go-related gene (hERG) potassium channel (human) | hERG current change (%, negative = inhibition) at 10uM = ____
3.63%

Form: Entry = "O=C1[C@@H]2[C@H](C(=O)N1O)[C@H]1C=C[C@@H]2C1" | System = human ether-à-go-go-related gene (hERG) potassium channel (human) | hERG current change (%, negative = inhibition) at 10uM = ____
-5.3%

Form: Entry = COc1ccc(N2C(=O)CC(N3CCN(S(=O)(=O)c4cc(C)ccc4C)CC3)C2=O)cc1 (stereo not shown) | System = human ether-à-go-go-related gene (hERG) potassium channel (human) | hERG current change (%, negative = inhibition) at 10uM = ____
-6.8%

Form: Entry = "CCc1cccc(NC(=O)COc2ccccc2)c1" | System = human ether-à-go-go-related gene (hERG) potassium channel (human) | hERG current change (%, negative = inhibition) at 10uM = ____
-8.01%

Form: Entry = COc1ccc(N/C(C)=C2/C(=O)C(=O)N(CCO)C2c2ccc([N+](=O)[O-])cc2)cc1 (stereo not shown) | System = human ether-à-go-go-related gene (hERG) potassium channel (human) | hERG current change (%, negative = inhibition) at 10uM = ____
-67.3%

###

Listed here are compounds together with their documented hERG current change (%, negative = inhibition) at 10uM.
Target: human ether-à-go-go-related gene (hERG) potassium channel (human, UniProt Q12809)
Sequence (Q12809 whole entry, looked up): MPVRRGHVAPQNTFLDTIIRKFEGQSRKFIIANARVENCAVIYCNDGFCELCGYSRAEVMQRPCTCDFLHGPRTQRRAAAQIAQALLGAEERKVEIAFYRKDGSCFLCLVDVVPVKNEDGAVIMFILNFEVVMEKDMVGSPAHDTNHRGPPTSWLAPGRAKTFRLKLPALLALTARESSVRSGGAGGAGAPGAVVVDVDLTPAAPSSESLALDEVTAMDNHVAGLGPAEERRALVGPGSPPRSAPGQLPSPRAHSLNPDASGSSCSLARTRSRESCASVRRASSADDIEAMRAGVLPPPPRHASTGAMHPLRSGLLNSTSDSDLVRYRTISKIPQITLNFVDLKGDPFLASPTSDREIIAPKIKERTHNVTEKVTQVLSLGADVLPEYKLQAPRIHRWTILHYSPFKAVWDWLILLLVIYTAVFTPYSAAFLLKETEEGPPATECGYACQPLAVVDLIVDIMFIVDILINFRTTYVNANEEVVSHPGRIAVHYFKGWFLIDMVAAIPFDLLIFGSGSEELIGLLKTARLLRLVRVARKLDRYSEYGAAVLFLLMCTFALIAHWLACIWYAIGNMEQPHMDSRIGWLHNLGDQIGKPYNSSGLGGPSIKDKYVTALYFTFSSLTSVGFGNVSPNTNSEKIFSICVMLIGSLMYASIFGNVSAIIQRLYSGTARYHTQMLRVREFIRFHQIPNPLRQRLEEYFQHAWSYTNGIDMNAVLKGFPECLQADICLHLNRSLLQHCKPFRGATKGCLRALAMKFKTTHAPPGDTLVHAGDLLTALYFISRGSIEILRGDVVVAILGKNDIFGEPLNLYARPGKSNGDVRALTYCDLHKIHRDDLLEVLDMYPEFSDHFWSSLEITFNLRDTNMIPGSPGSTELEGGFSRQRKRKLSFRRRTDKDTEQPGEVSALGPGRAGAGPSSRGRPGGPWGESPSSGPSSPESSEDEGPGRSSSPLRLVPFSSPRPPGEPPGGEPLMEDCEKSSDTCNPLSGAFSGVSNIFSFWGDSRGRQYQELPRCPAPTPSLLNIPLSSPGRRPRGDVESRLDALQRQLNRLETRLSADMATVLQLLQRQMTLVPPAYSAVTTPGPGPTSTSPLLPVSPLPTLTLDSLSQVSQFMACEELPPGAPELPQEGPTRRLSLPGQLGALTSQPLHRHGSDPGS
Assay: primary screen, population patch clamp on CHO cells stably expressing hERG; higher = less effect of the substance
Among all 310,000 compounds or so, about 14,000 (4.5%) showed an effect of 50% or more. Effects have a minus sign here. The list comes from a sample in which strong results are over-represented; it also holds close analogues and randomly drawn compounds.

Recorded results for 8 compounds are shown here.
1) COc1cccc(C(=O)Oc2ccc3ccc(=O)oc3c2)c1    42.3%
2) COc1ccc(N=C2SC(C(=O)N3CCN(c4ccc([N+](=O)[O-])cc4)CC3)CC(=O)N2C)cc1 (stereo not drawn)    -68.2%
3) O=C(c1cccc(S(=O)(=O)N2CCOCC2)c1)N1CCN(C/C=C/c2ccccc2)CC1    -46.3%
4) COc1ccc(N2CCN(C(=O)c3cc([N+](=O)[O-])ccc3N3CCN(CCO)CC3)CC2)cc1    -24.6%
5) COCC(=O)N1CCN(c2ccc([N+](=O)[O-])cc2)CC1    -62.7%
6) COc1ccc2[nH]cc(C(=O)CN3CCN(C4CCCCC4)CC3)c2c1    -54.8%
7) Cc1ccc2c(C(=O)CN3CCN(C4CCCCC4)CC3)c(C)[nH]c2c1    -55.1%
8) CCC1CCCCN1CC(=O)c1c(C)[nH]c2cc(C)ccc12 (stereo not drawn)    -27.7%

Which value of hERG current change (%, negative = inhibition) at 10uM has been reported for "O=C(c1ccc(-n2c(SCc3cc(F)ccc3F)nc3ccccc3c2=O)cc1)N1CCOCC1" in the records?
8.7%

###

Biological target: human ether-à-go-go-related gene (hERG) potassium channel (human, UniProt Q12809);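 also: peak tail current of the secondary pulse compared with the same well before compound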
Test: primary screen, population patch clamp on CHO cells stably expressing hERG; higher = less effect of the substance
About 14,000 (4.5%) of roughly 310,000 compounds showed an effect of 50% or more. Effects have a minus sign here. The entries come from a sample that favours strong results as a whole.
hERG current change (%, negative = inhibition) at 10uM below -10% gives false (0); hERG current change (%, negative = inhibition) at 10uM at or above it gives true (1).

1. COc1cnc(SC)nc1Nc1ccc(C#N)cc1    false (0)
2. CCOC(=O)CCCCC(=O)c1[nH]c(=O)[nH]c1CN1CCOCC1    true (1)
3. COc1ccc(Nc2nccc(OC)c2C#N)cc1    false (0)
4. COc1ccc(-c2cc3c(=O)n(CC(=O)NCCCN4CCC(N5CCCCC5)CC4)ncn3n2)cc1    true (1)
5. CC1(C)C(=O)OC(c2ccc([N+](=O)[O-])cc2)C(C)(C)C1=O (centres unmarked)    true (1)
6. CC(=O)CCc1ccc(OCC(O)CNC2CCCc3ccccc32)cc1.O=C(O)C(=O)O (centres unmarked)    false (0)
7. COc1ccc(-c2cc(=O)c3cc(OC)c(OC)cc3[nH]2)cc1    true (1)
8. COc1ccc(-c2cc3c(=O)n(CC(=O)NCCCN4CCC(Cc5ccccc5)CC4)ncn3n2)cc1    false (0)

Can "Cn1c(CN2CCN(C(=O)c3ccccc3Cl)CC2)nc2cc([N+](=O)[O-])ccc21" be said to have hERG current change (%, negative = inhibition) at 10uM at or above -10%?
false (0)

Can "Cn1c(CN2CCOCC2)nc2cc(NC(=O)c3ccccc3Cl)ccc21" be said to have hERG current change (%, negative = inhibition) at 10uM at or above -10%?
false (0)

Can "COc1ccc(Nc2nccc(-c3ccc(C#N)cc3)n2)cc1" be said to have hERG current change (%, negative = inhibition) at 10uM at or above -10%?
true (1)

Can "COc1ccc(-c2cc(=O)[nH]c(=O)[nH]2)cc1" be said to have hERG current change (%, negative = inhibition) at 10uM at or above -10%?
true (1)

Can O=C(CSc1ccccc1Cl)NC1CCCc2ccccc21 (centres unmarked) be said to have hERG current change (%, negative = inhibition) at 10uM at or above -10%?
true (1)

Can "COc1ccccc1C(=O)N1CCN(Cc2nc3cc([N+](=O)[O-])ccc3n2C)CC1" be said to have hERG current change (%, negative = inhibition) at 10uM at or above -10%?
false (0)

###

Biological target: human ether-à-go-go-related gene (hERG) potassium channel (human, UniProt Q12809);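 also: peak tail current of the secondary pulse compared with the same well before compound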
Assay: primary screen, population patch clamp on CHO cells stably expressing hERG; higher = less effect of the substance
In all, about 310,000 compounds went through this assay and about 14,000 (4.5%) showed an effect of 50% or more. Effects have a minus sign here. The sample as a whole holds a higher share of strong results than the screen did.
Listed here are molecules together with their documented hERG current change (%, negative = inhibition) at 10uM.
The reply should contain only the number, in %.

1) O=C(CSCc1ccc([N+](=O)[O-])cc1)Nc1ccccc1C(=O)O    24.7
2) Cc1c(C(=O)N/N=C/c2ccc(N3CCOCC3)cc2)nc2ccccn12    -1.87
3) CC(C)CNC(=S)NC(=O)c1csc([N+](=O)[O-])c1    9.85
4) COc1ccc(C(=O)c2oc3ccc(OC)cc3c2NC(C)=O)cc1    27.6
5) Cc1ccc(S(=O)(=O)N(Cc2ccc(Cl)cc2)c2ccccc2C(=O)O)cc1    12.3

Let us move to another entry and its hERG current change (%, negative = inhibition) at 10uM.
Form: Entry = "O=[N+]([O-])c1ccc(/C=N/Nc2nc(N3CCCC3)nc(N3CCCC3)n2)o1" | System = human ether-à-go-go-related gene (hERG) potassium channel (human, UniProt Q12809) | hERG current change (%, negative = inhibition) at 10uM = ____;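 also: peak tail current of the secondary pulse compared with the same well before compound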
1.41

###

Target: human ether-à-go-go-related gene (hERG) potassium channel (human, UniProt Q12809);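 also: peak tail current of the secondary pulse compared with the same well before compound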
Assay: primary screen, population patch clamp on CHO cells stably expressing hERG; higher = less effect of the substance
Method: Briefly, Chinese hamster ovary (CHO) cells stably expressing the hERG channel were dislodged from tissue culture flasks and dispensed into PPC plates. […] During the recording, background leak currents were estimated by a 100 ms step to -80 mV from an initial holding potential of -70 mV and subtracted from the subsequent current measurement. The campaign was conducted in two phases using slight differences in recording protocol. […]
In all, about 310,000 compounds went through this assay and about 14,000 (4.5%) showed an effect of 50% or more. Effects have a minus sign here. Shown is part of a subset that was picked to be rich in strong results.
Listed here are compounds together with their documented hERG current change (%, negative = inhibition) at 10uM.
The reply should contain only the number, in %.

1. CCN1CCN(c2oc(-c3ccco3)nc2C#N)CC1    -24.1
2. COc1ccc(S(=O)(=O)N2CCc3ccccc32)cc1C(=O)O    -6.25
3. CCOC(=O)C1CCN(S(=O)(=O)c2ccc(OC)c(C(=O)N3CCCCC3)c2)CC1    12.5
4. C=CCNc1oc(/C=C/c2ccccc2)nc1C#N    -28
5. CCN(CC)CCCNc1oc(/C=C/c2ccccc2)nc1C#N    -71
6. CCOC(=O)C1CCCN(C(=O)c2cc(S(=O)(=O)N3CCCCCC3)ccc2OC)C1 (stereo not shown)    -17.4

Let us move to another entry and its hERG current change (%, negative = inhibition) at 10uM.
Which value of hERG current change (%, negative = inhibition) at 10uM has been reported for "Cc1nc(NCCc2ccc(O)cc2)c2nnn(Cc3ccccc3)c2n1" in the records?
0.0141
